Hey, just so you know, these numbers are from patent US8338608B2.

Known pIC50 of a selection of compounds
target of assay: hSCN3A (Homo sapiens)
Construct: expressed in transfected cells
assay method text: SCN3A inhibitory activity in HEK cells stably expressing hSCN3A (whole-cell patch clamp / radiotracer efflux HTS)
Format: cell-based
stated conditions: HEK cells stably transfected with hSCN3A; read-out: SCN3A Inhibitory Activity
pIC50: −log10 of the molar value.

# input What does the data say about its pIC50? Entry: O=S(=O)(NCCC1CCCCC1)c1ccc(S(=O)(=O)Nc2nccs2)cc1 [Compound 44]
# output 6.00 to 6.30

# input I have this compound here, O=S(=O)(NCC1(c2ccc(Cl)cc2)CCC1)c1ccc(S(=O)(=O)Nc2nccs2)cc1 [Compound 21] , and I need its recorded pIC50.
# output > 7.00

# input Quick one: pIC50 of O=S(=O)(NCCc1ccc(Cl)c(Cl)c1)c1cc(F)c(S(=O)(=O)Nc2nccs2)cc1F [Compound 25] ?
# output 6.30 to 7.00

---

target of assay: hSCN3A (Homo sapiens)
Construct: expressed in transfected cells
assay method text: SCN3A inhibitory activity in HEK cells stably expressing hSCN3A (whole-cell patch clamp / radiotracer efflux HTS)
Format: cell-based
property: IC50

# input Find the recorded IC50 belonging to O=S(=O)(Nc1nccs1)c1ccc(S(=O)(=O)N2CC(COc3cccc(Cl)c3)C2)cc1 and report it.
# output 100 to 500 nM

---

target of assay: hSCN3A (Homo sapiens, UniProt Q9NY46)
Construct: expressed in transfected cells
Sequence (Q9NY46 whole entry): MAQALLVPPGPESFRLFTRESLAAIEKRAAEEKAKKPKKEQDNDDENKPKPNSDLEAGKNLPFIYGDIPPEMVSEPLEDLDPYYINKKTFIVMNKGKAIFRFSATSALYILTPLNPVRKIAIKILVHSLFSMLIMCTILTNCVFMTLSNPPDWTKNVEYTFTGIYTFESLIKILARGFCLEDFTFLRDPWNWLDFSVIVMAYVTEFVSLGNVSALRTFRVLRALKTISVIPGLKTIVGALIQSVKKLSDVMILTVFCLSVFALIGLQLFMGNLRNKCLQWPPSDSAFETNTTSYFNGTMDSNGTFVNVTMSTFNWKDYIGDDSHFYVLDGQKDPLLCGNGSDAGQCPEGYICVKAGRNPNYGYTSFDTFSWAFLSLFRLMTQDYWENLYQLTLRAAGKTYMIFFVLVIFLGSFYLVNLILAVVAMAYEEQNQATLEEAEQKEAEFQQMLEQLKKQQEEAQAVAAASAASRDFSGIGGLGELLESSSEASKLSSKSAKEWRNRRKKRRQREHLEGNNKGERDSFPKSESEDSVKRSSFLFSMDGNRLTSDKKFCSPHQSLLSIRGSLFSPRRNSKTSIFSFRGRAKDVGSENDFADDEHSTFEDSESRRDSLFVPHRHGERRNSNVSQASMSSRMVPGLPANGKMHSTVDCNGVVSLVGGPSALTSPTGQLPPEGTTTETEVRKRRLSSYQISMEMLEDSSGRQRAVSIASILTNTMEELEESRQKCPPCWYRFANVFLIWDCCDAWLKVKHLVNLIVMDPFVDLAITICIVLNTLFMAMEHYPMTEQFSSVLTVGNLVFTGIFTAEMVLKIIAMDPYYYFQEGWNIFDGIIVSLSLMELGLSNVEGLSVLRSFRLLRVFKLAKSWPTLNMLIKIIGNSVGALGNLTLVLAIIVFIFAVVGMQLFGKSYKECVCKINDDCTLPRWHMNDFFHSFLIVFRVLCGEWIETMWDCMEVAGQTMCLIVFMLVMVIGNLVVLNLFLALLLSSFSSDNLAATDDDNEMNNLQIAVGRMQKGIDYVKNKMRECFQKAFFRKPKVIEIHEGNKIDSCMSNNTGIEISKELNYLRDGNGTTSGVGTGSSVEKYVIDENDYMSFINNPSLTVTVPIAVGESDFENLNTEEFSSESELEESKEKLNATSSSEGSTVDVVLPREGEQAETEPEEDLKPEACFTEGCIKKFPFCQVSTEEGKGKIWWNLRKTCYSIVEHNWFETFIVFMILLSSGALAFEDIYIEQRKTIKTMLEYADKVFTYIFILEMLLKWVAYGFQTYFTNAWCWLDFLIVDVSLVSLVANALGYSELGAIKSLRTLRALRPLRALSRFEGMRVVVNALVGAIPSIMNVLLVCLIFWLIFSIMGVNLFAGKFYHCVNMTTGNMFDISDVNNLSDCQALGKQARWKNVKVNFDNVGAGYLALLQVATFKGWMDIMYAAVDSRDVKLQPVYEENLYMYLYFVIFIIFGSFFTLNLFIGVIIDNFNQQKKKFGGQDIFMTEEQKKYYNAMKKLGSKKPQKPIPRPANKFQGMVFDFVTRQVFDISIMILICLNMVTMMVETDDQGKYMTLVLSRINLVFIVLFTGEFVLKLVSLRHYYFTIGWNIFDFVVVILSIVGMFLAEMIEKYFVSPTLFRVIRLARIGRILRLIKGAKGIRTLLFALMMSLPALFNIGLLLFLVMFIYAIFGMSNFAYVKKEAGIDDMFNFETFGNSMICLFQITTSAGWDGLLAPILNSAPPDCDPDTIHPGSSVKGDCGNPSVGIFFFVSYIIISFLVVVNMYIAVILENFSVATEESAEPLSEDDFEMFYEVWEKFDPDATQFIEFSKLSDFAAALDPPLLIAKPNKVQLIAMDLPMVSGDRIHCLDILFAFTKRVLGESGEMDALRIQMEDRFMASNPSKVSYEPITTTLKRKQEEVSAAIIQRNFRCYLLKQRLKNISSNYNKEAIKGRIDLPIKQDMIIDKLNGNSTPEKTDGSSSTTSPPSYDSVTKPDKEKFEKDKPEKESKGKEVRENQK
assay method text: SCN3A inhibitory activity in HEK cells stably expressing hSCN3A (whole-cell patch clamp / radiotracer efflux HTS)
Assay type: cell-based
stated conditions: HEK cells stably transfected with hSCN3A; read-out: SCN3A Inhibitory Activity
property: IC50

Worked set:
smiles record | IC50
O=S(=O)(Nc1ncc(Cl)s1)c1ccc(S(=O)(=O)N2CCN(c3ccc(Cl)cc3F)CC2)cc1 | < 100 nM
O=S(=O)(Nc1nccs1)c1ccc(NS(=O)(=O)N2CCN(c3ccc(Cl)c(Cl)c3)CC2)cc1 | 100 to 500 nM

Next, consider the following compound.
# input Look at this compound and give its reported IC50. CC(C)(CNS(=O)(=O)c1ccc(S(=O)(=O)Nc2nccs2)cc1)c1ccc(Cl)cc1
# output 100 to 500 nM

---

target of assay: hSCN3A (Homo sapiens)
Construct: expressed in transfected cells
assay method text: SCN3A inhibitory activity in HEK cells stably expressing hSCN3A (whole-cell patch clamp / radiotracer efflux HTS)
Format: cell-based
stated conditions: HEK cells stably transfected with hSCN3A; read-out: SCN3A Inhibitory Activity
We begin with a simple list: items and their reported IC50.

compound | IC50
O=S(=O)(NCCCOc1ccc(Cl)cc1)c1ccc(S(=O)(=O)Nc2ncc(Cl)s2)cc1 | < 100 nM
O=S(=O)(NCc1cc(F)cc(C(F)(F)F)c1)c1ccc(S(=O)(=O)Nc2nccs2)cc1 | 100 to 500 nM
O=S(=O)(NCCC(c1ccccc1)c1ccccc1)Nc1ccc(S(=O)(=O)Nc2nccs2)nc1 | 100 to 500 nM
CC(C)(C)CCNS(=O)(=O)c1ccc(S(=O)(=O)Nc2nccs2)c(F)c1 | 100 to 500 nM
O=S(=O)(Nc1nccs1)c1ccc(S(=O)(=O)N2CCC[C@H]2COc2ccc(Cl)cc2)cc1 | < 100 nM
O=S(=O)(NCC(c1ccccc1)c1ccccc1)Nc1ccc(S(=O)(=O)Nc2nccs2)cc1 | < 100 nM
O=S(=O)(NCCc1ccc(Cl)c(Cl)c1)Nc1ccc(S(=O)(=O)Nc2nccs2)cc1 | < 100 nM
O=S(=O)(Nc1nccs1)c1ccc(S(=O)(=O)N2CCC(Cc3ccc(Cl)cc3)CC2)cc1 | 100 to 500 nM

# input Quick one: IC50 for O=S(=O)(NCCOc1ccc(Cl)cc1F)c1ccc(S(=O)(=O)Nc2nccs2)cc1 ?
# output 100 to 500 nM

# input Would you kindly share the measured IC50 for CN(CCc1ccccc1)S(=O)(=O)c1ccc(S(=O)(=O)Nc2nccs2)cc1 ?
# output > 1000 nM

# input I'd like to know its IC50. The compound in question is O=S(=O)(Nc1ncc(Cl)s1)c1ccc(S(=O)(=O)N2CC(=Cc3ccc(Cl)c(Cl)c3)C2)cc1
# output 100 to 500 nM

# input Which IC50 value is on record for O=S(=O)(NCCC1CCOCC1)Nc1ccc(S(=O)(=O)Nc2nccs2)cc1 ?
# output > 1000 nM

# input Give its IC50 value. Item: C[C@H](CNS(=O)(=O)c1ccc(S(=O)(=O)Nc2ncc(Cl)s2)cc1)Oc1ccc(Cl)cc1
# output 100 to 500 nM
